target: C. elegans (N2) complex I (NADH:ubiquinone oxidoreductase) (Caenorhabditis elegans, UniProt P24887+Q93873+Q94360); assay: biochemical; assay type: biochemical; settings: Dose 0.125 µM; read-out: C. elegans mitochondrial complex I activity
Sequence (Q94360 17-199): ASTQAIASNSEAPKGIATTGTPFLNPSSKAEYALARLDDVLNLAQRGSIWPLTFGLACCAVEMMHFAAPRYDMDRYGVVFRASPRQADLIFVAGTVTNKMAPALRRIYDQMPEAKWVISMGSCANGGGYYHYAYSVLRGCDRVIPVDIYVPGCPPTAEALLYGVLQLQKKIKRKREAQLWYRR
Sequence (P24887 whole entry): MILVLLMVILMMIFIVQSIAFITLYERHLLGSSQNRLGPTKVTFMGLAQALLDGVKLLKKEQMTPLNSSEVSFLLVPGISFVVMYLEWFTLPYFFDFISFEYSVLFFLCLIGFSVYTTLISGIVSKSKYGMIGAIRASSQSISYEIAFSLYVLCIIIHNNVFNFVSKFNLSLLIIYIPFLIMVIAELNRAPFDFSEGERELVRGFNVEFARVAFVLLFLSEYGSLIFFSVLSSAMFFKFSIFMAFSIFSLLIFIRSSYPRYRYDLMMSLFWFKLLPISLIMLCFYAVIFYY
Sequence (Q93873 31-482): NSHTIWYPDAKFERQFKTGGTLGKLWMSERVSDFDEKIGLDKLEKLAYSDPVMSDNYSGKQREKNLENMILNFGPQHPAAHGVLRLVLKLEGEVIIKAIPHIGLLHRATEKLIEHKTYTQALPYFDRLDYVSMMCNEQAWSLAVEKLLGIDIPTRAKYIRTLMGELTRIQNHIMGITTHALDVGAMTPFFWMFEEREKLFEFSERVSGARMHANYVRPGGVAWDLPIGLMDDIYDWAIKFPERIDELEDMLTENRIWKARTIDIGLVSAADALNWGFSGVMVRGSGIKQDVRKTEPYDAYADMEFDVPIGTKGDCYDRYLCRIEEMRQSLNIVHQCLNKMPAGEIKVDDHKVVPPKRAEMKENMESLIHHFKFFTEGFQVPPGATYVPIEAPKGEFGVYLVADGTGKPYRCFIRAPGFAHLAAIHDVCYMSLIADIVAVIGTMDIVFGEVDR
Cut-off 90% on activity at 0.125 µM: below means True, at or above means False.

Past entries and their recorded results:
Cc1ccccc1OCCCCn1cnc2ccccc21 | True
Cc1ccc(SCCCn2cnc3ccccc32)cc1 | False
Clc1ccc(OCCn2cnc3ccccc32)c(Cl)c1 | False
Cc1ccc(OCCn2cnc3ccccc32)c(C)c1 | False
Nc1nc2ccccc2n1Cc1ccc(Cl)cc1 | True
CCCOc1ccc(Cn2cnc3ccccc32)cc1 | True

**Q:** Strictly below 90% in activity at 0.125 µM? Cc1nc2ccccc2n1CCOc1ccccc1Cl
**A:** True

**Q:** Strictly below 90% in activity at 0.125 µM? Clc1ccc(SCCCCn2cnc3ccccc32)cc1
**A:** True

**Q:** Strictly below 90% in activity at 0.125 µM? Nc1nc2ccccc2n1CCOc1ccc(Br)cc1
**A:** True

====

molecular target: C. elegans (N2) complex I (NADH:ubiquinone oxidoreductase) (Caenorhabditis elegans, UniProt P24887+Q93873+Q94360); test: biochemical; format: biochemical; conditions: wild-type C. elegans mitochondria; estimated from fitted dose-response curves; read-out: C. elegans Complex I IC50
PARAMETER MEASURED: pIC50
Expect pIC50 as a plain number equal to -log10 of the molar concentration.

**Q:** Sample Cc1nc2ccccc2n1Cc1ccc(Br)cc1 — what was its pIC50?
**A:** 7.49

**Q:** Sample Cc1ccc(C(C)C)c(OCC(O)Cn2cnc3ccccc32)c1 (centres unmarked) — what was its pIC50?
**A:** 6.44

**Q:** Sample C=CCn1c(-c2ccc(N(C)C)cc2)nc2ccccc21 — what was its pIC50?
**A:** 4.88

**Q:** Sample Clc1ccccc1OCCCCn1cnc2ccccc21 — what was its pIC50?
**A:** 6.57

====

The entries below come with measured CC50 values attached.
tested on: HEK293 cells; settings: read-out: HEK293 Cell Viability Assay LC50; 2 days exposure
// return numeric value only (unit: µM, not printed)

Look over these answered cases.
Cc1cc(O)c(C(=O)/C=C/c2ccccc2)c(=O)o1 | 19.7
O=C(CCCN1C(=O)c2cccc3cccc(c23)C1=O)N1CCN(Cc2ccc3c(c2)OCO3)CC1 | 20.5
Cc1cc(O)c(C(=O)/C=C/c2ccc(C(C)C)cc2)c(=O)o1 | 24.8
O=C(/C=C/c1ccccc1)/C=C/c1ccccc1 | 7.48
COc1ccc(N=c2cc(-c3ccc(OC)cc3)oc3ccc(O)cc23)cc1 | 11.2
COc1ccc(-c2cc(=Nc3ccccc3N)c3ccccc3o2)cc1 | 29.2

// below: CC50 requested for another molecule
**Q:** Sample CC1(C#CCN2CCCCCC2)CCC2C(O1)c1ccccc1OC2(C)C (stereo not drawn) — what was its CC50?
**A:** 14.8

====

The entries below come with measured % Activity Complex III values attached.
tested on: C. elegans complex III (decylubiquinol-cytochrome C reductase); assay: In vitro complex III activity assay, C. elegans mitochondria; type: biochemical, Caenorhabditis elegans; conditions: 100 µM compound, relative to solvent control, mean (SEM)

Look over these answered cases.
C=C(C)[C@H]1Cc2c(ccc3c2O[C@@H]2COc4cc(OC)c(OC)cc4[C@@H]2C3=O)O1 [Rotenone, reference compound] | 99.20 (1.32) %
COc1cc2c(cc1OC)C(c1ccc(-c3ccc(Cl)c(Cl)c3)o1)=NCC2 [NPD3577] | 65.54 (2.59) %

**Q:** Sample Cc1cc(O)c(C(=O)/C=C/c2ccc(C(C)C)cc2)c(=O)o1 [NPD6240] — what was its % Activity Complex III?
**A:** 58.21 (2.30) %

**Q:** Sample CCCCCC[C@H]1C(=O)O[C@H](C)[C@H](NC(=O)c2cccc(NC=O)c2O)C(=O)O[C@@H](C)[C@@H]1OC(=O)CC(C)C [Antimycin A, reference compound] — what was its % Activity Complex III?
**A:** 0.00 (0.0) %

**Q:** Sample O=C(/C=C/c1ccccc1)/C=C/c1ccccc1 [FSL0005] — what was its % Activity Complex III?
**A:** 103.92 (1.25) %

**Q:** Sample O=C1OC(c2ccccc2)=NC1=CC=Cc1ccccc1 (mixture of isomers) [NPD8298] — what was its % Activity Complex III?
**A:** 101.94 (2.48) %

**Q:** Sample CC(C)Cc1ccc(C(C)c2nc3ccccc3n2C)cc1 (centres unmarked) [NPD8790] — what was its % Activity Complex III?
**A:** 63.54 (0.90) %

**Q:** Sample COc1cc2c(cc1OC)C(C(C)c1ccc(CC(C)C)cc1)=NCC2 (centres unmarked) [NPD10504] — what was its % Activity Complex III?
**A:** 79.51 (1.51) %

====

The entries below come with measured activity at 75 µM values attached.
molecular target: M. musculus (heart) complex I (Mus musculus, UniProt P03888+Q91WD5+Q9DC70); test: biochemical; type: biochemical; details: M. musculus; dose 75 µM; individual replicates (Rep); read-out: Complex I activity, dose-response data
Sequence (Q91WD5 34-463): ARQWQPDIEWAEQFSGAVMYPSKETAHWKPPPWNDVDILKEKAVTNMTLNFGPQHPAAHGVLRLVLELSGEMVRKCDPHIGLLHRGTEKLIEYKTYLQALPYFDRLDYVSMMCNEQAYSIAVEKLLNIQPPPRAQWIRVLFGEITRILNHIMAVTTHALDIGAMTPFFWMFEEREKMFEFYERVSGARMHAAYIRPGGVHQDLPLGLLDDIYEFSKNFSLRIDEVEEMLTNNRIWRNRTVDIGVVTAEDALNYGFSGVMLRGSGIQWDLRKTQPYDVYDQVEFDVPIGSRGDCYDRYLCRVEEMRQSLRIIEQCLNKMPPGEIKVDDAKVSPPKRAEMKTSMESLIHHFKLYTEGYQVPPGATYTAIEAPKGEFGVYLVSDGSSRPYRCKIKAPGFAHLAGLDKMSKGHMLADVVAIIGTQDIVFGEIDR
Sequence (Q9DC70 36-224): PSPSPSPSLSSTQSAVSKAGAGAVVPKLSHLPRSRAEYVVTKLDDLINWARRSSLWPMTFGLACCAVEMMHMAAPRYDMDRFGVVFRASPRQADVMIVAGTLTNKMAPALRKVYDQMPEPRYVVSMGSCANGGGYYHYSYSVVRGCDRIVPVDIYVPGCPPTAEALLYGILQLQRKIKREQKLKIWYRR
Sequence (P03888 whole entry): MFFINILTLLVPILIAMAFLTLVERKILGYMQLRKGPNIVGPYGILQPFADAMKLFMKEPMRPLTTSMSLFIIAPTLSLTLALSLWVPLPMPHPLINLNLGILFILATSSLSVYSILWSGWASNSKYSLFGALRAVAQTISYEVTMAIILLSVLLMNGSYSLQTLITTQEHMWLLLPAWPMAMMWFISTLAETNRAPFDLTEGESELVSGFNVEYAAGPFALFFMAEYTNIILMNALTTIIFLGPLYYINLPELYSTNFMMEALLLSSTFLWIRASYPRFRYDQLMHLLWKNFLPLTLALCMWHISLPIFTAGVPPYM
Give me the value, and tack the unit on after it.

COc1cc2c(cc1OC)C(/C=C/c1ccc(N(C)C)cc1)=NCC2 | 41.9%
CC(C)Cc1ccc(C(C)c2nc3ccccc3n2C)cc1 (stereo not shown) | 18%
COc1cc2c(cc1OC)C(c1ccc(-c3ccc(Cl)c(Cl)c3)o1)=NCC2 | 51.4%

// below: activity at 75 µM requested for another molecule
**Q:** Sample COc1cc2c(cc1OC)C(C(C)c1ccc(CC(C)C)cc1)=NCC2 (stereo not shown) — what was its activity at 75 µM?
**A:** 4.5%

====

experiment: in vitro; conditions: human, HEK293 cells (Flp-In-293), HEK293 viability, Dose 3.13 µM
The entries below come with measured viability at 2 days, 3.13 µM values attached.
Give me the value, and tack the unit on after it.

Cc1ccccc1OCCCn1c(C)nc2ccccc21 | 84.6%

**Q:** Sample Cc1ccc(SCCCn2cnc3ccccc32)cc1 — what was its viability at 2 days, 3.13 µM?
**A:** 90.8%

**Q:** Sample Nc1nc2ccccc2n1CCOc1ccc(Br)cc1 — what was its viability at 2 days, 3.13 µM?
**A:** 79.2%

**Q:** Sample Clc1ccc(SCCCCn2cnc3ccccc32)cc1 — what was its viability at 2 days, 3.13 µM?
**A:** 83.6%

**Q:** Sample Clc1ccccc1OCCCCn1cnc2ccccc21 — what was its viability at 2 days, 3.13 µM?
**A:** 100%

**Q:** Sample Brc1ccccc1OCCCCn1cnc2ccccc21 — what was its viability at 2 days, 3.13 µM?
**A:** 96.3%

====

target: M. musculus (heart) complex I (Mus musculus, UniProt P03888+Q91WD5+Q9DC70); assay: biochemical; format: biochemical; details: M. musculus; dose 0.005 µM; individual replicates (Rep); read-out: Complex I activity, dose-response data
PARAMETER MEASURED: activity at 0.005 µM

Look over these answered cases.
COc1cc2c(cc1OC)C(/C=C/c1ccc(N(C)C)cc1)=NCC2 [NPD6303] | 102%
COc1cc2c(cc1OC)C(C(C)c1ccc(CC(C)C)cc1)=NCC2 (stereo not shown) [NPD10504] | 114%

**Q:** Sample COc1cc2c(cc1OC)C(c1ccc(-c3ccc(Cl)c(Cl)c3)o1)=NCC2 [NPD3577] — what was its activity at 0.005 µM?
**A:** 109%

**Q:** Sample CC(C)Cc1ccc(C(C)c2nc3ccccc3n2C)cc1 (stereo not shown) [NPD8790] — what was its activity at 0.005 µM?
**A:** 101%

====

biological target: B. taurus (heart) complex I (Bos taurus, UniProt P03887+P17694+P42026); assay: biochemical; format: biochemical; conditions: log10 of IC50 in µM; B. taurus mitochondria
Sequence (P03887 whole entry): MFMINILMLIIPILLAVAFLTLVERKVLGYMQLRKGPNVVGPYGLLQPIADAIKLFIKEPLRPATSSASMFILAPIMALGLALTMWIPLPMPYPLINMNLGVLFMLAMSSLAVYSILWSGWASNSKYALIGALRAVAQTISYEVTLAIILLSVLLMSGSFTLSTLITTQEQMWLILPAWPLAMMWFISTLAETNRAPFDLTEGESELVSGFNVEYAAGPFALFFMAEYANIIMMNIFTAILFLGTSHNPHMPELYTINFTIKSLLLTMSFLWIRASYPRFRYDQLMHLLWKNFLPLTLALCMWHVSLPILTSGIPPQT
Sequence (P17694 34-463): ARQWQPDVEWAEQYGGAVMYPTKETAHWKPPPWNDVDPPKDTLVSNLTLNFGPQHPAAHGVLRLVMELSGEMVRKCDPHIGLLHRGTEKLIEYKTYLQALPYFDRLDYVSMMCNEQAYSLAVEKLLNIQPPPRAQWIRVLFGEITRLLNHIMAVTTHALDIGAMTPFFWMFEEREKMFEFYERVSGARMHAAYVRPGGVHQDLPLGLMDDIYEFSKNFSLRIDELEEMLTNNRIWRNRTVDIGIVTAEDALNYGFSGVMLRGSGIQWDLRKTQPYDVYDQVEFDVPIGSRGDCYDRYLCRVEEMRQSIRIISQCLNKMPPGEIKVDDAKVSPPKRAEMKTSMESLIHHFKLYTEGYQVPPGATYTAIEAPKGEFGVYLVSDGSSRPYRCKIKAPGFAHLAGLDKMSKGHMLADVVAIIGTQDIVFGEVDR
Sequence (P42026 38-216): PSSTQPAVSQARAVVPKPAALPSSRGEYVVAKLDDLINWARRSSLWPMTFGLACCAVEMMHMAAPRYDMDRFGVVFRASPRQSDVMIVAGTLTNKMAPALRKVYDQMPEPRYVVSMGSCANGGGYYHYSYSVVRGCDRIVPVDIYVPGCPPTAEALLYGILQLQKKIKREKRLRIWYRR
Label not fulfilled if Log IC50 B. taurus complex I falls below 0.5 µM; label fulfilled in every other case.

Past entries and their recorded results:
Cc1ccc(C(C)C)c(OCC(O)Cn2cnc3ccccc32)c1 (stereo not drawn) | not fulfilled
Cc1ccc(OCCn2cnc3ccccc32)cc1 | fulfilled
CC(C)Oc1cccc(OCCn2cnc3ccccc32)c1 | not fulfilled
Brc1ccc(Cn2cnc3ccccc32)cc1 | fulfilled
Cc1nc2ccccc2n1Cc1ccc(F)cc1 | fulfilled

**Q:** Please tell me: is the compound Clc1ccc(Cn2cnc3ccccc32)cc1Cl at or over 0.5 µM in terms of Log IC50 B. taurus complex I?
**A:** fulfilled

**Q:** Please tell me: is the compound Cc1ccc(OCCn2cnc3ccccc32)c(C)c1 at or over 0.5 µM in terms of Log IC50 B. taurus complex I?
**A:** fulfilled

**Q:** Please tell me: is the compound c1ccc(-c2noc(CCCCc3nc4ccccc4[nH]3)n2)cc1 at or over 0.5 µM in terms of Log IC50 B. taurus complex I?
**A:** fulfilled

**Q:** Please tell me: is the compound Cc1ccccc1OCCCCn1cnc2ccccc21 at or over 0.5 µM in terms of Log IC50 B. taurus complex I?
**A:** not fulfilled

**Q:** Please tell me: is the compound Cc1ccc(Cn2c(C(C)C)nc3ccccc32)cc1 at or over 0.5 µM in terms of Log IC50 B. taurus complex I?
**A:** fulfilled
